The reported numbers originate from patent US20260234226A1.

Molecular target: T1, his-tagged-DLL3 antigen (purified human/cynomolgus/dog/mouse/rat or minipig DLL3 antigen) (human/cynomolgus/dog/mouse/rat or …)
T1 construct: Antigen loaded on nickel-NTA tips for biolayer interferometry; also called Delta-like protein 3
T1 sequence (Q9NYJ7 whole entry): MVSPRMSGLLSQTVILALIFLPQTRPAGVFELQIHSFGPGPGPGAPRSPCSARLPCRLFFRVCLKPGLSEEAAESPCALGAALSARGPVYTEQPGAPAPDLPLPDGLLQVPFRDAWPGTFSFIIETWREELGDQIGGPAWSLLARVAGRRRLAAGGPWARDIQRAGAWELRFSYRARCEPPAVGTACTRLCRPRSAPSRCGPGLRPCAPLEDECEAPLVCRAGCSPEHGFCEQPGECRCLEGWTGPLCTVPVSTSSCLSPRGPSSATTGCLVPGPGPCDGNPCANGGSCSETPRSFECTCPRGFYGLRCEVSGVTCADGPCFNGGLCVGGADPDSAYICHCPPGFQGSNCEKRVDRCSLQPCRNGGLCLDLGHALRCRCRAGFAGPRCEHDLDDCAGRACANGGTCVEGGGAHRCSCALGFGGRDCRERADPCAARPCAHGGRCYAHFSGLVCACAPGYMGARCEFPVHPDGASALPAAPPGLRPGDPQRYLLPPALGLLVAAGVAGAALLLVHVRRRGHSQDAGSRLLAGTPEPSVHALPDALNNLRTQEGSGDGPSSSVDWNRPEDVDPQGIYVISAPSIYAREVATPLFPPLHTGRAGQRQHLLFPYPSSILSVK
Assay: biolayer interferometry (Octet BLItz), his-tagged DLL3 on nickel-NTA tip, minibody in solution
Listed here: items and their measured koff.
Numbers only; they are read as s⁻¹.

Examples from the recorded data:
IAB57M1-3 (other, Signal peptide left out) EIVMTQSPATLSVSPGERATLSCKASQSVSNDVVWYQQKPGQAPRLLIYDASNRYTGIPARFSGSGSGTEFTLTISSLQSEDFAVYYCQQDYTSPWTFGQGTKLEIKGSTSGGGSGGGSGGGGSSQVQLVQSGAEVKKPGASVKVSCKASGYTFTNYGMNWVRQAPGQGLEWMGWINTYTGEPTYADDFKGRVTMTTDTSTSTAYMELRSLRSDDTAVYYCARIGDSSPSDYWGQGTLVTVSSEPKSSDKTHTCPPCPPCGGGSSGGGSGGQPREPQVYTLPPSREEMTKNQVSLTCLVKGFYPSDIAVEWESNGQPENNYKTTPPVLDSDGSFFLYSKLTVDKSRWQQGNVFSCSVMHEALHNHYTQKSLSLSPG	0.00239
IAB57M2-4 (other, Signal peptide left out) QVQLVQSGAEVKKPGASVKVSCKASGYTFTNYGMNWVRQAPGQGLEWMGWINTYTGEPTYADDFKGRVTMTTDTSTSTAYMELRSLRSDDTAVYYCARIGDSSPSDYWGQGTLVTVSSGSTSGGGSGGGSGGGGSSEIVMTQSPATLSVSPGERATLSCKASQSVSNDVVWYQQKPGQAPRLLIYDASNRYTGIPARFSGSGSGTEFTLTISSLQSEDFAVYYCQQDYTSPWTFGQGTKLEIKEPKSSDKTHTCPPCPPCGGGSSGGGSGGQPREPQVYTLPPSREEMTKNQVSLTCLVKGFYPSDIAVEWESNGQPENNYKTTPPVLDSDGSFFLYSKLTVDKSRWQQGNVFSCSVMHEALHNHYTQKSLSLSPG	0.00281
IAB57M1-1 (other, Parental minibody; also called parental minibody IAB57M1-1) EIVMTQSPATLSVSPGERATLSCKASQSVSNDVVWYQQKPGQAPRLLIYYASNRYTGIPARFSGSGSGTEFTLTISSLQSEDFAVYYCQQDYTSPWTFGQGTKLEIKGSTSGGGSGGGSGGGGSSQVQLVQSGAEVKKPGASVKVSCKASGYTFTNYGMNWVRQAPGQGLEWMGWINTYTGEPTYADDFKGRVTMTTDTSTSTAYMELRSLRSDDTAVYYCARIGDSSPSDYWGQGTLVTVSSEPKSSDKTHTCPPCPPCGGGSSGGGSGGQPREPQVYTLPPSREEMTKNQVSLTCLVKGFYPSDIAVEWESNGQPENNYKTTPPVLDSDGSFFLYSKLTVDKSRWQQGNVFSCSVMHEALHNHYTQKSLSLSPG	0.00279

Quick one: koff for IAB57M2-2 (other, Parental minibody; Signal peptide left out; also called parental minibody IAB57M2-2) QVQLVQSGAEVKKPGASVKVSCKASGYTFTNYGMNWVRQAPGQGLEWMGWINTYTGEPTYADDFKGRVTMTTDTSTSTAYMELRSLRSDDTAVYYCARIGDSSPSDYWGQGTLVTVSSGSTSGGGSGGGSGGGGSSEIVMTQSPATLSVSPGERATLSCKASQSVSNDVVWYQQKPGQAPRLLIYYASNRYTGIPARFSGSGSGTEFTLTISSLQSEDFAVYYCQQDYTSPWTFGQGTKLEIKEPKSSDKTHTCPPCPPCGGGSSGGGSGGQPREPQVYTLPPSREEMTKNQVSLTCLVKGFYPSDIAVEWESNGQPENNYKTTPPVLDSDGSFFLYSKLTVDKSRWQQGNVFSCSVMHEALHNHYTQKSLSLSPG ?
0.00214
